The origin of these recorded values is patent US20230407373A1.

tested on: SARS-CoV-2 gRNA; assay type: binding; details: […]; LC-MS/MS; Probe I sample (first 199 lines of Table 2)
# target (unweighted spectral count of the protein in the RNP capture) per record follows

1) HNRNPA1L2 (protein, UniProt Q32P51 1-320, looked up) Heterogeneous nuclear …: MSKSASPKEPEQLRKLFIGGLSFETTDESLRSHFEQWGTLTDCVVMRDPNTKRSRGFGFVTYATVEEVDAAMNTTPHKVDGRVVEPKRAVSREDSQRPGAHLTVKKIFVGGIKEDTEEHHLRDYFEQYGKIEVIEIMTDRGSGKKRGFAFVTFDDHDSVDKIVIQKYHTVKGHNCEVRKALPKQEMASASSSQRGRRGSGNFGGGRGDGFGGNDNFGRGGNFSGRGGFGGSCGGGGYGGSGDGYNGFGNDGSNFGGGGSYNDFGNYNNQSSNFGPMKGGNFGGRSSGPYGGGGQYFAKPQNQGGYGVSSSSSSYGSGRRF ... 6

Attention now shifts to the item below.
For the molecule CNBP: host protein, UniProt P62633 (protein, UniProt P62633 2-177, looked up) CCHC-type zinc finger nucleic …: SSNECFKCGRSGHWARECPTGGGRGRGMRSRGRGGFTSDRGFQFVSSSLPDICYRCGESGHLAKDCDLQEDACYNCGRGGHIAKDCKEPKREREQCCYNCGKPGHLARDCDHADEQKCYSCGEFGHIQKDCTKVKCYRCGETGHVAINCSKTSEVNCYRCGESGHLARECTIEATA , give its reported target (unweighted spectral count of the protein in the RNP capture).
74
